Target: UniProt P34969
Sequence (P34969 whole entry): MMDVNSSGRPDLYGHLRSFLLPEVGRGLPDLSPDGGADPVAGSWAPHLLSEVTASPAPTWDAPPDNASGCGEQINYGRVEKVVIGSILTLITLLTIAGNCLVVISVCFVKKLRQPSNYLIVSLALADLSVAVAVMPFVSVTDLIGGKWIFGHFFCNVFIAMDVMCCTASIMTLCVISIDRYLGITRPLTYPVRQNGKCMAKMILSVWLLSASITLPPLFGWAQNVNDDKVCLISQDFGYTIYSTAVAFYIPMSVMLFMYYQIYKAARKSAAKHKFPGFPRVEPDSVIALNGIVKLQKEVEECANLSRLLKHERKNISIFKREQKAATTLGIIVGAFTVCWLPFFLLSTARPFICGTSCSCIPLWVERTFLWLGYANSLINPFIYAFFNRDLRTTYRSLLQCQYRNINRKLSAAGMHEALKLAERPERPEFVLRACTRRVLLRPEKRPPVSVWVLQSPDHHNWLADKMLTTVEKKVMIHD
Experiment: Displacement of [3H]LSD from human recombinant 5HT7 receptor expressed in CHO cells by liquid scintillation counting
Form field: IC50 (one value per entry).

- compound: "CCC/C=C1\\OC(=O)c2ccccc21 [Z-butylidenephthalide]"
  lt-gt-eq: "="
  IC50 [µM]: 127
- compound: "C=C[C@@H](O)C#CC#C[C@@H](O)/C=C\\CCCCCCC"
  lt-gt-eq: "="
  IC50 [µM]: 118
- compound: "C=C[C@@H](O)C#CC#C[C@@H](O)/C=C\\CCCCCCCCOC(C)=O"
  lt-gt-eq: "="
  IC50 [µM]: 118
- compound: "CCCCCCC/C=C\\[C@H](O)C#CC#CC(=O)CCOC"
  lt-gt-eq: ">"
  IC50 [µM]: 150
- compound: "COc1cc(/C=C/C(=O)OCCc2ccc(O)cc2)ccc1O"
  lt-gt-eq: "="
  IC50 [µM]: 47.6

Every entry's value here was drawn from ChEMBL document CHEMBL1157305.
